# tested_target: Polyunsaturated fatty acid 5-lipoxygenase (Homo sapiens) (UniProt P09917)
# Sequence (whole entry): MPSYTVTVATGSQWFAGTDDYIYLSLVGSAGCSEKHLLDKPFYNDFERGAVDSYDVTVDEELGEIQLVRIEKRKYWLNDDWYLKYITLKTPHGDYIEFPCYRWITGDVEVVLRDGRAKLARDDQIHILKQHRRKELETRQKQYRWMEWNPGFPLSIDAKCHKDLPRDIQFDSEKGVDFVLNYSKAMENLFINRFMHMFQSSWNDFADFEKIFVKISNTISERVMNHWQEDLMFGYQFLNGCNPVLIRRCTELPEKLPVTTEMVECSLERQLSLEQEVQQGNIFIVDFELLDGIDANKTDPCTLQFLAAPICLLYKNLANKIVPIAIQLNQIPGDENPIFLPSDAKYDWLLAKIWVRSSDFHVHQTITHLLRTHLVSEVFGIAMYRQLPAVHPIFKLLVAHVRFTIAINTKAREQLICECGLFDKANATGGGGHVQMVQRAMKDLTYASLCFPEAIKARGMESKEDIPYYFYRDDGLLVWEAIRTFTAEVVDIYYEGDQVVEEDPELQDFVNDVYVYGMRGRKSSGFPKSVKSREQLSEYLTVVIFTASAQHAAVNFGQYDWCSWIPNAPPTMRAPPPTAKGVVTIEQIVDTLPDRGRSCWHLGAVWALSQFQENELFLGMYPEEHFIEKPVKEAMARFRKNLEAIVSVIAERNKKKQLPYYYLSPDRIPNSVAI
# experiment_description: Inhibition of human recombinant 5-lipoxygenase expressed in Escherichia coli BL21 assessed as residual activity by measuring enzyme product formation using arachidonic acid as substrate at 10 uM after 10 mins by RP-HPLC analysis
Please enter rule met where Activity is greater than or equal to 80%, and rule not met where it is lower.

>>> print(df.to_string())
                                   compound  category_label
0  CCCC/C(=C\c1ccc(OCCCOc2cccc(C)c2C)cc1)C(=O)O        rule met
1  CCCCC(Cc1ccc(OCCCOc2cccc(C)c2C)cc1)C(=O)O (stereo unspecified)    rule not met
2  CCCCC(Sc1ccc(OCCCOc2ccccc2)cc1)C(=O)O (stereo unspecified)    rule not met
3       Cc1cccc(OCCCOc2ccc(SCC(=O)O)cc2)c1C    rule not met

* * *

# System: A549
# experiment_description: Cytotoxicity against human A549 cells assessed as cell viability at 10 uM after 16 hrs by MTT assay
# Type: cell-based
# stated_conditions: a549, 5 h, in the assay text read “5 hrs” for “16 hrs”
metric: Activity

In [3]: df
Out[3]:
                                   molecule  experimental_result
0       Cc1cccc(OCCCOc2ccc(SCC(=O)O)cc2)c1C            Non-toxic
1  CCCCC(Sc1ccc(OCCCOc2ccccc2OC)cc1)C(=O)O (configuration not stated)            Non-toxic
2  CCCCC(Sc1ccc(OCCCOc2cccc3c2CCCC3)cc1)C(=O)OCC (configuration not stated)            Non-toxic
3  CCCCC(Sc1ccc(OCCCOc2ccc(-c3ccccc3)cc2)cc1)C(=O)OCC (configuration not stated)            Non-toxic
4  CCCCC(Sc1ccc(OCCCOc2cccc(C)c2)cc1)C(=O)O (configuration not stated)            Non-toxic
5  CCCCC(Sc1ccc(OCCCOc2ccc(Cl)c(C(F)(F)F)c2)cc1)C(=O)O (configuration not stated)            Non-toxic
6  CCCCC(Sc1ccc(OCCCOc2ccc(-c3ccccc3)cc2)cc1)C(=O)O (configuration not stated)            Non-toxic

* * *

# tested_target: Polyunsaturated fatty acid 5-lipoxygenase (Homo sapiens)
# experiment_description: Inhibition of human recombinant 5-lipoxygenase expressed in Escherichia coli BL21 assessed as residual activity by measuring enzyme product formation using arachidonic acid as substrate at 10 uM after 10 mins by RP-HPLC analysis
metric: Activity (%)

In [3]: df
Out[3]:
                                   molecule  experimental_result
0  CCCCC(Sc1ccc(OCCCOc2ccc(-c3ccccc3)cc2)cc1)C(=O)OCC (centres undefined)                   83
1  CCCCC(Sc1ccc(OCCCOc2cccc(OC)c2)cc1)C(=O)O (centres undefined)                 67.7
2       Cc1cccc(OCCCOc2ccc(CCC(=O)O)cc2)c1C                 81.8
3  CCCCC(Sc1ccc(OCCCOc2ccc(C)cc2)cc1)C(=O)O (centres undefined)                 67.6
4  CCCCC(Sc1ccc(OCCCOc2ccc3ncccc3c2)cc1)C(=O)OCC (centres undefined)                 68.3
5  CCCCC(Sc1ccc(OCCCOc2ccccc2C)cc1)C(=O)O (centres undefined)                 58.3
6  CCCCC(Sc1ccc(OCCCOc2ccc3ncccc3c2)cc1)C(=O)O (centres undefined)                   59
7  CCCCC(Sc1ccc(OCCCOc2ccc(Cl)cc2OC)cc1)C(=O)O (centres undefined)                 59.2
8  CCCCC(Sc1ccc(OCCCOc2cccc3c2CCCC3)cc1)C(=O)OCC (centres undefined)                 79.4

* * *

# tested_target: Prostaglandin E synthase (Homo sapiens) (UniProt O14684)
# Sequence (O14684 whole entry): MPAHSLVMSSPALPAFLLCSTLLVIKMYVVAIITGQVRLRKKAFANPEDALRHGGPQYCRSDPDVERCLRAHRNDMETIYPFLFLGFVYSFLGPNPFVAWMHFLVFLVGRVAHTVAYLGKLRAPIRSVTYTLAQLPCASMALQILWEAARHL
# experiment_description: Inhibition of mPGES-1 in human IL-1beta-stimulated A549 cell microsomes assessed as residual activity by measuring reduction of PGE2 formation from PGH2 at 10 uM after 15 mins
# stated_conditions: Microsome
Label Criterion met when Activity < 80%; otherwise Criterion not met.

                                   compound     category_label
0  CCCCC(Sc1ccc(OCCCOc2cccc(OC)c2)cc1)C(=O)O (stereo not drawn)      Criterion met
1  CCCC/C(=C\c1ccc(OCCCOc2cccc(C)c2C)cc1)C(=O)O      Criterion met
2       Cc1cccc(OCCCOc2ccc(CCC(=O)O)cc2)c1C  Criterion not met
3  CCCCC(Sc1ccc(OCCCOc2ccc3ncccc3c2)cc1)C(=O)OCC (stereo not drawn)  Criterion not met
4       Cc1cccc(OCCCOc2ccc(SCC(=O)O)cc2)c1C      Criterion met
5  CCCCC(Sc1ccc(OCCCOc2cccc(C)c2)cc1)C(=O)O (stereo not drawn)      Criterion met
6  CCCCC(Sc1ccc(OCCCOc2ccccc2OC)cc1)C(=O)O (stereo not drawn)  Criterion not met

* * *

# IC50 annotations
# tested_target: Polyunsaturated fatty acid 5-lipoxygenase (Homo sapiens, UniProt P09917)
# experiment_description: Inhibition of human recombinant 5-lipoxygenase expressed in Escherichia coli BL21 assessed as enzyme product formation using arachidonic acid as substrate after 10 mins by RP-HPLC analysis
metric: IC50

                                    compound  metric  experimental_result
 0       Cc1cccc(OCCCOc2ccc(SCC(=O)O)cc2)c1C    IC50              > 10 µM
 1       Cc1cccc(OCCCOc2ccc(CCC(=O)O)cc2)c1C    IC50              > 10 µM
 2  CCCC[C@@H](Sc1ccc(OCCCOc2cccc(C)c2C)cc1)C(=O)O    IC50                10 µM
 3  CCCCC(Sc1ccc(OCCCOc2ccc(Cl)c(C(F)(F)F)c2)cc1)C(=O)O (centres undefined)    IC50                 2 µM
 4  CCCCC(Sc1ccc(OCCCOc2cccc(C(F)(F)F)c2)cc1)C(=O)O (centres undefined)    IC50               9.8 µM
 5  CCCC[C@H](Sc1ccc(OCCCOc2cccc(C)c2C)cc1)C(=O)O    IC50               8.2 µM
 6  CCCCC(Sc1ccc(OCCCOc2cccc3c2CCCC3)cc1)C(=O)OCC (centres undefined)    IC50              > 10 µM
 7  CCCCC(Sc1ccc(OCCCOc2ccc(-c3ccccc3)cc2)cc1)C(=O)O (centres undefined)    IC50               3.5 µM
 8  CCCCC(Sc1ccc(OCCCOc2ccccc2OC)cc1)C(=O)O (centres undefined)    IC50              > 10 µM
 9  CCCCC(Sc1ccc(OCCCOc2ccc(C)cc2)cc1)C(=O)O (centres undefined)    IC50              > 10 µM
10  CCCCC(Sc1ccc(OCCCOc2ccc(Cl)cc2OC)cc1)C(=O)O (centres undefined)    IC50              > 10 µM
11  CCCCC(Sc1ccc(OCCCOc2cccc(C(C)C)c2)cc1)C(=O)O (centres undefined)    IC50                 6 µM
12  CCCCC(Sc1ccc(OCCCOc2cccc(OC)c2)cc1)C(=O)O (centres undefined)    IC50              > 10 µM
13  CCCCC(Sc1ccc(OCCCOc2cccc(C)c2C)cc1)C(=O)O (centres undefined)    IC50               8.8 µM
14  CCCCC(Sc1ccc(OCCCOc2ccc(-c3ccccc3)cc2)cc1)C(=O)OCC (centres undefined)    IC50              > 10 µM
15  CCCCC(Sc1ccc(OCCCOc2cccc3c2CCCC3)cc1)C(=O)O (centres undefined)    IC50               4.5 µM
16  CCCCC(Cc1ccc(OCCCOc2cccc(C)c2C)cc1)C(=O)O (centres undefined)    IC50              > 10 µM
17  CCCCC(Sc1ccc(OCCCOc2ccccc2)cc1)C(=O)O (centres undefined)    IC50              > 10 µM
18  CCCC/C(=C\c1ccc(OCCCOc2cccc(C)c2C)cc1)C(=O)O    IC50              > 10 µM
19  CCCCC(Sc1ccc(OCCCOc2ccccc2C)cc1)C(=O)O (centres undefined)    IC50              > 10 µM
20  CCCCC(Sc1ccc(OCCCOc2cccc(C)c2)cc1)C(=O)O (centres undefined)    IC50              > 10 µM
21  CCCCC(Sc1ccc(OCCCOc2ccc3ncccc3c2)cc1)C(=O)O (centres undefined)    IC50              > 10 µM
22  CCCCC(Sc1ccc(OCCCOc2ccccc2C(C)C)cc1)C(=O)O (centres undefined)    IC50               7.8 µM
23  CCCCC(Sc1ccc(OCCCOc2ccc3ncccc3c2)cc1)C(=O)OCC (centres undefined)    IC50              > 10 µM
